B1: SFRS1 (parent)
chain: YSPRRSRGSPRYSPRHSRSRSRT

- Variants of: B1
- test-summary: protein stability index of a GFP-peptide fusion (GPS, HEK-293T) (PSI 1-6); higher = more stable;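 also: lentivirally expressed fusions sorted by FACS into six bins by GFP to DsRed ratio, PSI derived from sequencing read proportions per bin multiplied by bin number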
- setup-conditions: c terminus: native
Criterion: protein stability index meeting or surpassing 4. Met: label 1. Not met: label 0.

variant_annotation=S13W answer_label="label 0"
variant_annotation=S21W answer_label="label 1"
variant_annotation=P14Y answer_label="label 0"
variant_annotation=R20P answer_label="label 0"
variant_annotation=S2M answer_label="label 0"
variant_annotation=Y12K answer_label="label 0"
variant_annotation=S6Q answer_label="label 1"
variant_annotation=H16K answer_label="label 1"
variant_annotation=R4N answer_label="label 0"
variant_annotation=R18S answer_label="label 0"
variant_annotation=R4M answer_label="label 0"
variant_annotation=R18P answer_label="label 0"
variant_annotation=G8Y answer_label="label 0"
variant_annotation=R20A answer_label="label 0"
variant_annotation=P3E answer_label="label 1"
variant_annotation=T23K answer_label="label 1"
variant_annotation=P10K answer_label="label 1"
variant_annotation=R4P answer_label="label 0"
variant_annotation=P10L answer_label="label 0"
